Species on record: Rattus norvegicus
ASSAY_OVERVIEW: Open TG-GATES - Regimen: Daily Repeat
Assay type: toxicity, organism-based, Sprague-Dawley
Set-up: regimen Daily Repeat, gender Male, age 6 weeks
CONDITIONS_USED: in vivo, po, 0 mg/kg, […], tissue Plasma, route gavage, dose level Control, time 14 day
READOUT_LABEL: GLC

Take a look at these entries with their results.
>>> result("CCN(CC)N=O")
"205 mg/dL"
>>> result("CC(N)=O [ACETAMIDE]")
"196.6 mg/dL"
>>> result("CC(CCc1ccccc1)NCC(O)c1ccc(O)c(C(N)=O)c1 (stereo not drawn)")
"197 mg/dL"

Enquiry: Report GLC, nothing else, for this molecule: CC(C)Cc1ccc(C(C)C(=O)O)cc1 (stereo not drawn)
Return: 200.4 mg/dL

Enquiry: Input `CC[C@@H](CO)NCCN[C@@H](CC)CO` , output reported GLC.
Return: 196.6 mg/dL

Enquiry: Return the recorded GLC value; entry: `CC(=O)Nc1ccc2c(c1)Cc1ccccc1-2`
Return: 196.2 mg/dL

Enquiry: // Input: `O=C(O)COc1nn(Cc2ccccc2)c2ccccc12` . Output its GLC only.
Return: 197.2 mg/dL

Enquiry: Specify reported GLC for the molecule shown: CC(=O)N1CCN(c2ccc(OCC3COC(Cn4ccnc4)(c4ccc(Cl)cc4Cl)O3)cc2)CC1 (stereo not drawn)
Return: 178.4 mg/dL

###

Parameter Cl: see the listing below.
Species on record: Rattus norvegicus
ASSAY_OVERVIEW: Open TG-GATES - Regimen: Single
Assay type: toxicity, organism-based, Sprague-Dawley
Set-up: regimen Single, gender Male, age 6 weeks
CONDITIONS_USED: in vivo, po, 0 mg/kg, 6 h, tissue Plasma, route gavage, dose level Control
Give just the numeric value; meq/L need not be written.

>>> recorded_number("O=C(O)COc1nn(Cc2ccccc2)c2ccccc12")
105.6
>>> recorded_number("CCN(CC)N=O")
102.8

Enquiry: Note down Cl recorded for `CC[C@@H](CO)NCCN[C@@H](CC)CO`
Return: 105.8

Enquiry: For the compound `CC(=O)Nc1ccc2c(c1)Cc1ccccc1-2` , give its measured Cl value.
Return: 101.4

Enquiry: Please look at this compound and report its Cl: CC(=O)N1CCN(c2ccc(OCC3COC(Cn4ccnc4)(c4ccc(Cl)cc4Cl)O3)cc2)CC1 (stereo not given)
Return: 105.6

###

Entries and their measured Ret follow.
Organism: Rattus norvegicus
ASSAY_OVERVIEW: Open TG-GATES - Regimen: Daily Repeat
Type: toxicity, organism-based, Sprague-Dawley
Design: regimen Daily Repeat, gender Male, age 6 weeks
CONDITIONS_USED: in vivo, po, 0 mg/kg, […], tissue Blood, route gavage, dose level Control, time 7 day
Unit % implied. Number only.

Worked examples, 2 compounds total:
>>> recorded_number("O=C(O)COc1nn(Cc2ccccc2)c2ccccc12")
5.1
>>> recorded_number("CC[C@@H](CO)NCCN[C@@H](CC)CO")
5.1

Enquiry: Give the value of Ret reported for the following: `CC(=O)Nc1ccc2c(c1)Cc1ccccc1-2`
Return: 5.6

Enquiry: Tell me its Ret given `CCN(CC)N=O` as the entry.
Return: 5.8

Enquiry: Query Ret for CC(N)=O [ACETAMIDE]
Return: 6.7

Enquiry: Give Ret for CC(C)Cc1ccc(C(C)C(=O)O)cc1 (stereo not drawn)
Return: 6.7

Enquiry: Specify Ret for CC(=O)N1CCN(c2ccc(OCC3COC(Cn4ccnc4)(c4ccc(Cl)cc4Cl)O3)cc2)CC1 (stereo not drawn) and stop.
Return: 5.5

Enquiry: Give a short answer stating reported Ret for CC(CCc1ccccc1)NCC(O)c1ccc(O)c(C(N)=O)c1 (stereo not drawn) .
Return: 6
